Source of measurements: patent US4517003A

Target: jack bean urease (Sigma, Type IX) (Canavalia ensiformis)
Construct: purchased Sigma Type IX
Sequence (P07374 whole entry, looked up): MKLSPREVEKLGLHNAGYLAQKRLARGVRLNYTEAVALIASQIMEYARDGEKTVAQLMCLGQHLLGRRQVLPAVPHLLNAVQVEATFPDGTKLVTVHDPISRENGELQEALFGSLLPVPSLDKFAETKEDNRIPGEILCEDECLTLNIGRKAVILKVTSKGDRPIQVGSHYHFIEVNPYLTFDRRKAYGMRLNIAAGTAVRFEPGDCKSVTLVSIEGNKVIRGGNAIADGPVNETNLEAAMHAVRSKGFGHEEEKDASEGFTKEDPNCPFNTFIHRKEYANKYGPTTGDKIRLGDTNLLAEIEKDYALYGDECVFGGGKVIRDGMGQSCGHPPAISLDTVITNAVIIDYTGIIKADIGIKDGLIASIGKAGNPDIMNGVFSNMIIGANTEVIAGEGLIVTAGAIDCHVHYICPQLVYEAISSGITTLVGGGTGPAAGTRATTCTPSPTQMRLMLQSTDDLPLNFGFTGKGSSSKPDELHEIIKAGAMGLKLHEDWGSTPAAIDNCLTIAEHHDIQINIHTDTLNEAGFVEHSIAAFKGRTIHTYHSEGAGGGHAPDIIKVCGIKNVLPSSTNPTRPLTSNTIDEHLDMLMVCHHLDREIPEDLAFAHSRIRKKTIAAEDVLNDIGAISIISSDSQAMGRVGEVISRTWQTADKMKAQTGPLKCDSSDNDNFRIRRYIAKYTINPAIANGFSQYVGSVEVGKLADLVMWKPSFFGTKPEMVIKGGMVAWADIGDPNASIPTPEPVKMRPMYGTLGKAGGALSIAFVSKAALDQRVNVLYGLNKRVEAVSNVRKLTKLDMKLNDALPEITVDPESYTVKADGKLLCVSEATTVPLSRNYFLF
Assay comment: Jack bean urease inhibition (modified Bremner procedure, homogeneous solution)
Type: biochemical
Condition parameters: Table II; 10^-7 M inhibitor; jack bean urease; read-out: % Inhibition at Specific Inhibitor Concentration 10^-7 M
List of inhibition at 0.1 µM values.

- Compound: "NP(N)(=O)NC(=O)C(F)(F)F [IV]"
  inhibition at 0.1 µM / %: 22
- Compound: "NP(N)(=O)NC(=O)C(Cl)(Cl)Cl [Example III]"
  inhibition at 0.1 µM / %: 70
- Compound: "NP(N)(=O)NC(=O)CCl [Example II, N-(Diaminophosphinyl)-2-chloroacetamide]"
  inhibition at 0.1 µM / %: 81
